measurementProtocol: Photostability after irradiation with white light at the fluence rate of 50 mW/cm2 for 3 mins
Format: ADME
details: read-out: Stability

{"givenSmiles": "O=C(O)c1ccc(-c2c3nc(c(-c4ccncc4)c4ccc([nH]4)c(-c4ccncc4)c4nc(c(-c5ccncc5)c5ccc2[nH]5)C=C4)C=C3)cc1", "remaining at 0.05 h / %": 97}
{"givenSmiles": "C[n+]1ccc(-c2c3nc(c(-c4cc[n+](C)cc4)c4ccc([nH]4)c(-c4cc[n+](C)cc4)c4nc(c(-c5ccc(C(=O)O)cc5)c5ccc2[nH]5)C=C4)C=C3)cc1.[I-].[I-].[I-]", "remaining at 0.05 h / %": 86}
